Test: Cytotoxicity against human ZR-75-1 cells after 3 days by sulforhodamine B assay
Type: cell-based
Conditions: read-out: ED50
Metric: CC50 at 72 h (mg/L)
Quick note: give the figure in mg/L, leave out the unit.

Worked cases, answers included:
COc1ccc2cc1Oc1ccc(cc1)C[C@H]1c3c(cc(OC)c4c3Oc3cc5c(cc3O4)CCN(C)[C@@H]5C2)CCN1C : 1.2
COc1ccc2cc1Oc1ccc(cc1)C[C@H]1c3cc(c(OC)cc3CCN1C)Oc1c(O)c(OC)cc3c1[C@@H](C2)N(C)CC3 : 2.5
COc1ccc2cc1Oc1ccc(cc1)C[C@H]1c3c(cc(OC)c(O)c3Oc3cc4c(cc3OC)CCN(C)[C@@H]4C2)CCN1C [HOMOAROMOLINE] : 1.2
COc1ccc2cc1Oc1ccc(cc1)C[C@H]1c3c(cc(OC)c(OC)c3Oc3cc4c(cc3OC)CCN(C)[C@@H]4C2)CCN1C [OBABERINE] : 4

Quick one: CC50 at 72 h for COc1ccc2cc1Oc1ccc(cc1)C[C@H]1c3c(cc4c(c3Oc3cc5c(cc3OC)CCN[C@@H]5C2)OCO4)CCN1C ?
0.9

----------
Experiment: in vitro
Details: human, A431 cells
Description: Selectivity index, ratio of ED50 for human A431 cells to ED50 for chloroquine-resistant Plasmodium falciparum W2
Response key: true (1) means selectivity ratio >= 30; false (0) means selectivity ratio < 30.

# bool: selectivity ratio of C=C[C@H]1CN2CC[C@H]1C[C@H]2[C@H](O)c1ccnc2ccc(OC)cc12 [QUININE] >= 30
true (1)

Quick one: COc1ccc2cc1Oc1ccc(cc1)C[C@H]1c3c(cc(OC)c4c3Oc3cc5c(cc3O4)CCN(C)[C@@H]5C2)CCN1C
false (0)

Cool, now COc1ccc2cc1Oc1ccc(cc1)C[C@H]1c3c(cc(OC)c(OC)c3Oc3cc4c(cc3OC)CCN[C@@H]4C2)CCN1C
true (1)

What do we get for COc1ccc2cc1Oc1ccc(cc1)C[C@H]1c3c(cc4c(c3Oc3cc5c(cc3OC)CCN(C)[C@@H]5C2)OCO4)CCN1C [CEPHARANTHINE] ?
false (0)

Record: COc1ccc2cc1Oc1ccc(cc1)C[C@H]1c3cc(c(OC)cc3CCN1C)Oc1c(OC)c(OC)cc3c1[C@@H](C2)N(C)CC3
true (1)

Lookup COc1ccc2cc1Oc1ccc(cc1)C[C@H]1c3c(cc(OC)c(O)c3Oc3cc4c(cc3OC)CCN[C@@H]4C2)CCN1C
true (1)

Try this compound too: COc1ccc2cc1Oc1ccc(cc1)C[C@H]1c3cc(c(OC)cc3CCN1C)Oc1c(O)c(OC)cc3c1[C@@H](C2)NCC3
true (1)

----------
Assay: Selectivity index, ratio of ED50 for human ZR-75-1 cells to ED50 for chloroquine-sensitive Plasmodium falciparum D6
Type: toxicity, cell-based
Conditions: read-out: Ratio ED50
Metric: selectivity ratio
A bare number is all that is needed in reply.

COc1ccc2cc1Oc1ccc(cc1)C[C@H]1c3cc(c(OC)cc3CCN1C)Oc1c(O)c(OC)cc3c1[C@@H](C2)NCC3 : 23
OC(c1cc(C(F)(F)F)nc2c(C(F)(F)F)cccc12)C1CCCCN1 (centres undefined) : 300
COc1ccc2cc1Oc1ccc(cc1)C[C@H]1c3c(cc(OC)c(O)c3Oc3cc4c(cc3OC)CCN[C@@H]4C2)CCN1C : 29

Next up:
Using the record for COc1ccc2cc1Oc1ccc(cc1)C[C@H]1c3c(cc(OC)c(OC)c3Oc3cc4c(cc3OC)CCN[C@@H]4C2)CCN1C , report its selectivity ratio.
41

----------
Test: Selectivity index, ratio of ED50 for human HT1080 cells to ED50 for chloroquine-resistant Plasmodium falciparum W2
Format: toxicity, cell-based, HT-1080
Details: read-out: Ratio ED50
Metric: selectivity ratio

Completed entries (count: 2):
COc1ccc2cc1Oc1ccc(cc1)C[C@H]1c3c(cc(OC)c4c3Oc3cc5c(cc3O4)CCN=C5C2)CCN1C : 8
COc1ccc2cc1Oc1ccc(cc1)C[C@H]1c3c(cc4c(c3Oc3cc5c(cc3OC)CCN[C@@H]5C2)OCO4)CCN1C : 15

// selectivity ratio lookup, key: COc1ccc2cc1Oc1ccc(cc1)C[C@H]1c3c(cc(OC)c4c3Oc3cc5c(cc3O4)CCN(C)[C@@H]5C2)CCN1C
9

Try this molecule next: COc1ccc2cc1Oc1ccc(cc1)C[C@H]1c3c(cc(OC)c(O)c3Oc3cc4c(cc3OC)CCN(C)[C@@H]4C2)CCN1C [HOMOAROMOLINE]
31

Further, for COc1ccc2cc1Oc1ccc(cc1)C[C@H]1c3c(cc(OC)c(OC)c3Oc3cc4c(cc3OC)CCN[C@@H]4C2)CCN1C ?
79

----------
Assay: Selectivity index, ratio of ED50 for human LNCaP cells to ED50 for chloroquine-sensitive Plasmodium falciparum D6
Assay type: toxicity, cell-based
Settings: read-out: Ratio ED50
Here the recorded selectivity ratio is given for each entry.

C=C[C@H]1CN2CC[C@H]1C[C@H]2[C@H](O)c1ccnc2ccc(OC)cc12 : > 2630
COc1ccc2cc1Oc1ccc(cc1)C[C@H]1c3c(cc(OC)c(O)c3Oc3cc4c(cc3OC)CCN(C)[C@@H]4C2)CCN1C : 33
COc1ccc2cc1Oc1ccc(cc1)C[C@H]1c3cc(c(OC)cc3CCN1C)Oc1c(O)c(OC)cc3c1[C@@H](C2)N(C)CC3 : 49

Now consider a different molecule.
What value of measured selectivity ratio is listed for COc1ccc2cc1Oc1ccc(cc1)C[C@H]1c3c(cc4c(c3Oc3cc5c(cc3OC)CCN[C@@H]5C2)OCO4)CCN1C ?
64

----------
Assay: in vitro
Conditions: mouse, P388 cells
Description: Selectivity index, ratio of ED50 for mice (Mus musculus) P388 cells to ED50 for chloroquine-sensitive Plasmodium falciparum D6
Metric: selectivity ratio
When you answer, write just the number.

Reported selectivity ratio for COc1ccc2cc1Oc1ccc(cc1)C[C@H]1c3c(cc4c(c3Oc3cc5c(cc3OC)CCN[C@@H]5C2)OCO4)CCN1C : what is it?
2

And for COc1ccc2cc1Oc1ccc(cc1)C[C@H]1c3cc(c(OC)cc3CCN1C)Oc1c(O)c(OC)cc3c1[C@@H](C2)NCC3 ?
2

Entry COc1ccc2cc1Oc1ccc(cc1)C[C@H]1c3c(cc(OC)c(OC)c3Oc3cc4c(cc3OC)CCN[C@@H]4C2)CCN1C please
76

How about this molecule: OC(c1cc(C(F)(F)F)nc2c(C(F)(F)F)cccc12)C1CCCCN1 (centres undefined)
22

----------
Assay: Selectivity index, ratio of ED50 for human COL1 cells to ED50 for chloroquine-resistant Plasmodium falciparum W2
Assay type: toxicity, cell-based
Conditions: read-out: Ratio ED50
So basically: is selectivity ratio under 60? Then Fulfilled. Not under? Then Not fulfilled.

Some solved entries appear below for comparison.
COc1ccc2cc1Oc1ccc(cc1)C[C@H]1c3cc(c(OC)cc3CCN1C)Oc1c(O)c(OC)cc3c1[C@@H](C2)NCC3 : Fulfilled
COc1ccc2cc1Oc1ccc(cc1)C[C@H]1c3cc(c(OC)cc3CCN1C)Oc1c(OC)c(OC)cc3c1[C@@H](C2)NCC3 : Not fulfilled
C=C[C@H]1CN2CC[C@H]1C[C@H]2[C@H](O)c1ccnc2ccc(OC)cc12 : Not fulfilled

Lab log: compare recorded selectivity ratio with 60; is it strictly lower for COc1ccc2cc1Oc1ccc(cc1)C[C@H]1c3c(cc(OC)c(O)c3Oc3cc4c(cc3OC)CCN(C)[C@@H]4C2)CCN1C ?
Fulfilled

----------
# selectivity ratio listing for each entry below
Assay: Selectivity index, ratio of ED50 for human ZR-75-1 cells to ED50 for chloroquine-resistant Plasmodium falciparum W2
Format: toxicity, cell-based
Conditions: read-out: Ratio ED50
Form: value (number only, do not type unit).

Fill in: selectivity ratio of COc1ccc2cc1Oc1ccc(cc1)C[C@H]1c3c(cc4c(c3Oc3cc5c(cc3OC)CCN[C@@H]5C2)OCO4)CCN1C is ___
7

Same lookup for COc1ccc2cc1Oc1ccc(cc1)C[C@H]1c3cc(c(OC)cc3CCN1C)Oc1c(OC)c(OC)cc3c1[C@@H](C2)NCC3 , please.
40

Query COc1ccc2cc1Oc1ccc(cc1)C[C@H]1c3c(cc(OC)c(O)c3Oc3cc4c(cc3OC)CCN(C)[C@@H]4C2)CCN1C [HOMOAROMOLINE] next
7

----------
Assay: Cytotoxicity against human LUC1 cells after 3 days by sulforhodamine B assay
Assay type: cell-based
Conditions: read-out: ED50
# CC50 at 72 h per entry
API: value field is a number in µg/mL; no unit string.

Example cases with answers are listed next.
COc1ccc2cc1Oc1ccc(cc1)C[C@H]1c3c(cc(OC)c(O)c3Oc3cc4c(cc3OC)CCN[C@@H]4C2)CCN1C : 9
COc1ccc2cc1Oc1ccc(cc1)C[C@H]1c3c(cc4c(c3Oc3cc5c(cc3OC)CCN(C)[C@@H]5C2)OCO4)CCN1C : 8.8
COc1ccc2cc1Oc1ccc(cc1)C[C@H]1c3c(cc(OC)c(OC)c3Oc3cc4c(cc3OC)CCN[C@@H]4C2)CCN1C : 8.8
COc1ccc2cc1Oc1ccc(cc1)C[C@H]1c3c(cc(OC)c(OC)c3Oc3cc4c(cc3OC)CCN(C)[C@@H]4C2)CCN1C : 9.7

# query: CC50 at 72 h of entry COc1ccc2cc1Oc1ccc(cc1)C[C@H]1c3c(cc(OC)c(O)c3Oc3cc4c(cc3OC)CCN(C)[C@@H]4C2)CCN1C
8.6

What do you have for COc1ccc2cc1Oc1ccc(cc1)C[C@H]1c3c(cc(OC)c4c3Oc3cc5c(cc3O4)CCN=C5C2)CCN1C ?
1.7

Further, for COc1ccc2cc1Oc1ccc(cc1)C[C@H]1c3c(cc(OC)c4c3Oc3cc5c(cc3O4)CCN(C)[C@@H]5C2)CCN1C ?
7.7
